- System: NCl-H187, epithelial (small cell lung cancer, SCLC)
- Assay protocol: Viability assay in NCl-H187
- Assay type: cell-based
- Condition notes: H187 cell line, 48-72 h incubation
No end group written: not given here.
Assay readout: EC50

Substance	Assay readout	Recorded measurement
RRRRRRRSKAPKVVILSKALEYLQA-NH2 [IDP-LLCb01]	EC50	~5 µM

---

pEC50: −log10 of the molar value. No end group written: not given here.
The following substances have recorded pEC50 on MCF-7, epithelial (breast cancer).
Assay readout: pEC50

Substance	Recorded measurement
RKRRNDLRSRFLALRDQ-NH2 (C-terminus assumed) [IDP-wtL05]	< 4.00
RRRRRRRRKRRNDLRSRFLALRDQ-NH2 [IDP-intwtL05]	< 4.00

Source of measurements: patent US20200239547A1
